Test: chemical genetic growth profiling, strain panel (AID 1159580);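 also: tested at 20 µM; growth read once vehicle control cultures reached saturation at 30 °C; lower values mean less growth of the strain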
Details: S. cerevisiae deletion strains, growth OD, locus YBR229C, strain ROT2
Among all 5,500 compounds or so, about 2,000 (36%) were called active. Roughly 18% stayed inconclusive and do not appear here. Rule as the data show it: active = normalized growth mostly below about 0.91 (no sharp cut-off); inconclusive = no clear call, values can overlap the other calls; inactive = mostly above about 0.92. Some of the results follow.
Outcomes: true (active), false (inactive)

> print(dat)
                                    compound  label
 1       COc1ccccc1C1CCN(Cc2ccc3ccccc3c2)CC1  false
 2  CCC1(c2ccc(N)cc2)CCC(=O)NC1=O (centres undefined)  false
 3  OCCN(CCO)c1nc(N2CCCCC2)c2nc(N(CCO)CCO)nc(N3CCCCC3)c2n1  false
 4                O=C(O)COc1cc(Cl)c(Cl)cc1Cl  false
 5     Cc1nn(-c2ccccc2)nc1C(=O)NC(=O)N1CCCC1  false
 6      COc1ccccc1C1CCN(C(=O)c2ccc(F)cc2)CC1  false
 7  CC1(C)C2CC[C@]3(C)C(C(=O)C=C4[C@H]5C[C@@](C)(C(=O)O)CC[C@]5(C)CC[C@]43C)[C@@]2(C)CC[C@@H]1O (some centres undefined)  false
 8  FC(F)(F)Oc1ccc(-c2noc(CSc3ccc(Br)cc3)n2)cc1  false
 9     CC(=O)Nc1cccc(-n2nnc(SCc3ccccc3)n2)c1  false
10                     Cc1c(Cl)cccc1SCC(=O)O  false
11   CCC(C(=O)O)c1ccccc1 (centres undefined)  false
12               C[CH2][Hg][S]c1ccccc1C(=O)O   true
13                  O=c1[nH]c2cccnc2[nH]c1=O  false
14           Cc1c(N(C)C)c(=O)n(-c2ccccc2)n1C  false
15              CC[C@@H](CO)NCCN[C@@H](CC)CO  false
16                             Cn1cc[nH]c1=S  false
17            CCCCCC(C)N (centres undefined)  false
18             N#Cc1cnn(-c2ccccc2)c1-n1cccc1  false
19                    CNC(=S)NN=C(N)c1ccccn1  false
20  OCC(O)Cc1ccc2c(c1)OCO2 (centres undefined)  false
21                O=C(O)C1c2ccccc2Oc2ccccc21  false
22   CCC(C(N)=O)c1ccccc1 (centres undefined)  false
23           O=C(O)c1cc(=O)c2ccc(Cl)cc2[nH]1  false
24  O=C(O)C1CC([C@@H]2CCCCN2)CN2CCCCC12 (some centres undefined)  false
